# credit: patent US7157430B2

Biological target: mICE (Mus musculus)
Sequence (P29452 123-296 limits assumed): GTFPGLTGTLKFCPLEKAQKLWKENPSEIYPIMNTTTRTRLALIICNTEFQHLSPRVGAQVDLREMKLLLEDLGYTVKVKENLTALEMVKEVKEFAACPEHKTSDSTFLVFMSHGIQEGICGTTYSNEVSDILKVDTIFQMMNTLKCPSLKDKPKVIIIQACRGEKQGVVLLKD
Sequence (P29452 315-402 limits assumed): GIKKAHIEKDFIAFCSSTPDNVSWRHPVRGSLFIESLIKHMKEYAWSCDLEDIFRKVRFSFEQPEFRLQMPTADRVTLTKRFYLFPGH
Assay: Dissociation constant Ki and irreversible rate constant k3 for irreversible inhibitors, ICE
Format: biochemical
Settings: continuous assay 60 min, reaction initiated by adding enzyme
Text: For the irreversible inhibition of a ICE/ced-3 Family Protease enzyme with a competitive irreversible inhibitor; using the model represented by the following formulas: […] The product formation at time t may be expressed as: [formula] where E, I, EI and E-I denote the active enzyme, inhibitor, non-covalent enzyme-inhibitor complex and covalent enzyme-inhibitor adduct, respectively. […]
For each record, write down the corresponding mICE k3/Ki.

Under mICE (Mus musculus): report mICE k3/Ki of O=C(O)CC(NC(=O)[C@@H]1CCCCN1C(=O)COc1cccc2ccccc12)C(=O)CF (stereo partly shown) . 46,300 M^−1s^−1

Under mICE (Mus musculus): report mICE k3/Ki of CC(C)[C@H](NC(=O)COc1ccccc1-c1ccccc1)C(=O)N[C@@H](CC(=O)O)C(=O)COc1c(F)c(F)cc(F)c1F . 29,300 M^−1s^−1

Under mICE (Mus musculus): report mICE k3/Ki of CC(C)[C@H](NC(=O)COc1cccc2ccccc12)C(=O)N[C@@H](CC(=O)O)C(=O)COP(=O)(c1ccccc1)c1ccccc1 . 143,000 M^−1s^−1

Under mICE (Mus musculus): report mICE k3/Ki of CC(C)[C@H](NC(=O)COc1cccc2ccccc12)C(=O)N[C@@H](CC(=O)O)C(=O)COc1ccccc1 . 3,630 M^−1s^−1

* * *

For each record, write down the corresponding pIC50.
Molecular target: CPP32 (Homo sapiens, UniProt P42574)
Sequence (P42574 29-175 limits assumed): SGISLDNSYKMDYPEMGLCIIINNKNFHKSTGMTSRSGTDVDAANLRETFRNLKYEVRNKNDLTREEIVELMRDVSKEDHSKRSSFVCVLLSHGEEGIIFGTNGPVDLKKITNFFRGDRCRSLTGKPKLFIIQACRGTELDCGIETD
Sequence (P42574 176-277 limits assumed): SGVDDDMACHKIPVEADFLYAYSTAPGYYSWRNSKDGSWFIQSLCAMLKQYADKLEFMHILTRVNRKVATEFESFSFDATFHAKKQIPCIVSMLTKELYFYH
Assay: Fluorescence enzyme assay, IC50 determination, CPP32
Format: biochemical
Conditions: recombinant enzyme, Ac-DEVD-AMC substrate, 30 min preincubation, room temperature; read-out: CPP32 IC50
Where a SMILES comes first, the peptide text is derived from it. The star is where a group is joined. Cbz = O=C(OCc1ccccc1)*
// pIC50: -log10(molar conc.)

Give reported pIC50 value for CC(C)[C@H](NC(=O)COc1ccc2ccccc2c1C(=O)O)C(=O)N[C@H](C=O)CC(=O)O 6.40

Give reported pIC50 value for CC(C)[C@H](NC(=O)COc1cccc2ccccc12)C(=O)N[C@H](C=O)CC(=O)O 6.45

Give reported pIC50 value for CC(C)C[C@H](NC(=O)[C@@H](CCC(=O)O)Oc1cccc2ccccc12)C(=O)N[C@H](C=O)CC(=O)O 8.42

Give reported pIC50 value for CC(C)C[C@H](NC(=O)COc1cccc2ccccc12)C(=O)N[C@H](C=O)CC(=O)O 6.85

Give reported pIC50 value for CC(C)[C@H](NC(=O)COc1cccc2c(NS(=O)(=O)C(F)(F)F)cccc12)C(=O)N[C@H](C=O)CC(=O)O 6.68

Give reported pIC50 value for CC(C)C[C@H](NC(=O)[C@H](CCC(=O)O)Oc1cccc2ccccc12)C(=O)N[C@H](C=O)CC(=O)O 7.68

Give reported pIC50 value for O=C[C@H](CC(=O)O)NC(=O)[C@@H]1CSC(c2ccccc2)N1C(=O)COc1cccc2ccccc12 (some centres unmarked) 4.85

Give reported pIC50 value for CC(C)[C@H](NC(=O)COc1cc2ccccc2cc1C(=O)O)C(=O)N[C@H](C=O)CC(=O)O 6.14

Give reported pIC50 value for CC(C)C[C@H](NC(=O)COc1cccc2c1OC(C)(C)C2)C(=O)N[C@H](C=O)CC(=O)O 6.62

Give reported pIC50 value for CC(C)C[C@H](NC(=O)C(C)Nc1cccc2ccccc12)C(=O)N[C@H](C=O)CC(=O)O (mixture of isomers) 6.29

Give reported pIC50 value for CC(C)[C@H](NC(=O)COc1c(C(=O)O)ccc2ccccc12)C(=O)N[C@H](C=O)CC(=O)O 7.27

Give reported pIC50 value for CC(C)[C@H](NC(=O)OCc1ccccc1)C(=O)N[C@@H](C)C(=O)N[C@H](C=O)CC(=O)O [reference, Cbz-ValAlaAsp-H, reference compound] (Cbz-Val-Ala-Asp-aldehyde) 4.33

Give reported pIC50 value for O=C[C@H](CC(=O)O)NC(=O)[C@@H]1Cc2ccccc2N1C(=O)COc1cccc2ccccc12 4.60

Give reported pIC50 value for CC(C)C[C@H](NC(=O)CNc1cccc2ccccc12)C(=O)N[C@H](C=O)CC(=O)O 7.89
